Source of measurements: patent US6620831B2

Molecular target: CDK2/cyclin A (Homo sapiens)
Experiment: CDK2 inhibitory activity (CDK2/cyclin A, [gamma-32P] ATP, histon H1 or Rb protein substrate)
Details: first IC50 column (c1) of Table 1
Answer each item with its documented IC50.

Below: 2 molecules and their reported IC50.
chemical_structure=CCN(CC)c1nc(CC(=O)Nc2n[nH]c3ccc(N4CCCS4(=O)=O)cc23)cs1 observed_value="< 500 nM"
chemical_structure=COc1cc(CC(=O)Nc2n[nH]c3ccc(N4CCCS4(=O)=O)cc23)cc(OC)c1 observed_value="< 50 nM"

For each entry beneath this line, provide reported IC50.
1. Nc1ccc(CC(=O)Nc2n[nH]c3ccc(N4CCCS4(=O)=O)cc23)cc1
2. COc1ccc(CC(=O)Nc2n[nH]c3ccc(N4CCCS4(=O)=O)cc23)cc1
3. O=C(Cc1ccc(-c2ccccc2)cc1)Nc1n[nH]c2ccc(N3CCCS3(=O)=O)cc12
4. Cc1ccc(CC(=O)Nc2n[nH]c3ccc(N4CCCS4(=O)=O)cc23)cc1
5. O=C(Cc1cccc(Cl)c1)Nc1n[nH]c2ccc(N3CCCS3(=O)=O)cc12
6. O=C(Cc1ccc(Oc2ccccc2)cc1)Nc1n[nH]c2ccc(N3CCCS3(=O)=O)cc12
7. CCN(CC)c1ccc(CC(=O)Nc2n[nH]c3ccc(N4CCCS4(=O)=O)cc23)cc1

< 50 nM
< 100 nM
< 50 nM
< 50 nM
< 50 nM
< 100 nM
< 50 nM

Recorded IC50 of Nc1nc(CC(=O)Nc2n[nH]c3ccc(N4CCCS4(=O)=O)cc23)cs1 , please.
< 500 nM

* * *

Biological target: CDK2/cyclin A (Homo sapiens)
Test: CDK2 inhibitory activity (CDK2/cyclin A, [gamma-32P] ATP, histon H1 or Rb protein substrate)
Settings: first IC50 column (c1) of Table 1
Provide the recorded IC50 for the entries that follow.

compound="O=C(Cc1ccc(-c2ccncc2)cc1)Nc1n[nH]c2ccc(N3CCCS3(=O)=O)cc12 [Compound 33]" observed_value="< 50 nM"
compound="O=C(Cc1ccccc1)Nc1n[nH]c2ccc(N3CCCS3(=O)=O)cc12 [Compound 1]" observed_value="< 50 nM"
compound="CCNc1cccc(CC(=O)Nc2n[nH]c3ccc(N4CCCS4(=O)=O)cc23)c1 [Compound 69]" observed_value="< 500 nM"

Each compound below has a recorded value; state its IC50.
1. CCOc1ccc(CC(=O)Nc2n[nH]c3ccc(N4CCCS4(=O)=O)cc23)cc1S(=O)(=O)N1CCOCC1 [Compound 79]
2. O=C(Cn1cnc(-c2ccc3ccccc3c2)c1)Nc1n[nH]c2ccc(N3CCCS3(=O)=O)cc12 [Compound 62]
3. O=C(Cc1ccc(-c2ccsc2)cc1)Nc1n[nH]c2ccc(N3CCCS3(=O)=O)cc12 [Compound 36]

< 1000 nM
< 50 nM
< 50 nM

Report IC50 for each item below.
1. CSc1ccc(CC(=O)Nc2n[nH]c3ccc(N4CCCS4(=O)=O)cc23)cc1 [Compound 20]
2. O=C(CN1CCOCC1)Nc1n[nH]c2ccc(N3CCCS3(=O)=O)cc12 [Compound 31]

["< 50 nM", "< 10000 nM"]

* * *

Hi there, I'd appreciate the recorded IC50 for every entry that follows.
Molecular target: CDK2/cyclin A (Homo sapiens, UniProt P24941)
Experiment: CDK2 inhibitory activity (CDK2/cyclin A, [gamma-32P] ATP, histon H1 or Rb protein substrate)
Conditions: first IC50 column (c1) of Table 1

# batch size: 7; output IC50 per entry
1. CCOc1ccc(CC(=O)Nc2n[nH]c3ccc(N4CCCS4(=O)=O)cc23)cc1 [Compound 42]
2. CCC(C(=O)Nc1n[nH]c2ccc(N3CCCS3(=O)=O)cc12)c1ccccc1 (centres unmarked) [Compound 57]
3. O=C(Nc1n[nH]c2ccc(N3CCCS3(=O)=O)cc12)C(c1ccccc1)C1CCCC1 (centres unmarked) [Compound 56]
4. O=C(Cc1cccc2ccccc12)Nc1n[nH]c2ccc(N3CCCS3(=O)=O)cc12 [Compound 16]
5. O=C(Cc1ccc(Cl)cc1)Nc1n[nH]c2ccc(N3CCCS3(=O)=O)cc12 [Compound 8]
6. O=C(CN1CCCCC1)Nc1n[nH]c2ccc(N3CCCS3(=O)=O)cc12 [Compound 32]
7. CCNc1ccc(CC(=O)Nc2n[nH]c3ccc(N4CCCS4(=O)=O)cc23)cc1 [Compound 72]

1. < 0.05 µM
2. < 100 µM
3. < 100 µM
4. < 0.05 µM
5. < 0.05 µM
6. < 10 µM
7. < 0.05 µM

Under CDK2/cyclin A (Homo sapiens, UniProt P24941): IC50 value of NCCOc1ccc(CC(=O)Nc2n[nH]c3ccc(N4CCCS4(=O)=O)cc23)cc1 [Compound 75] ?
< 0.1 µM
